Data origin, for the record: PubChem BioAssay (NCATS)

assay: Primary qHTS for inhibitors of nuclear receptor binding SET domain protein 2 (NSD2) in an isogenic RCH-ACV NSD2 p.E1099K mutant (9B) (AID 1645876); conditions: RCH-ACV (leukaemia line) NSD2 E1099K (9B) viability, CellTiter-Glo, 72 h; series mostly up to 44.9 µM; also: nearly all actives have a fitted effect of over 70% in size
Inconclusive results are not listed. Active and inactive are the calls of the source. Calls follow the shape of the dose curve; as a rule, active = well fitted inhibition curve with a large enough effect; inconclusive = small, poorly fitted or top-dose-only effect; inactive = flat fitted curve, though single readings scatter.
The reply should name one outcome from T (active), F (inactive)

Illustrative cases are given below, each with its answer.
| structureSmiles | category |
| --- | --- |
| Cc1nc(CN(C)c2ncnc3ccc(-c4ccc5c(c4)OCO5)cc23)cs1 | T |
| O=C1OC(/C=C/c2ccccc2)=NC/1=C\c1cccnc1 | F |
| Cc1ccc(OCCSc2ncccn2)c(Br)c1 | F |
| O=C1NC(=O)C(c2c[nH]c3ccccc23)=C1c1c[nH]c2ccccc12 | T |
| COc1cc(N2CCOCC2)ccc1Nc1ncc(F)c(Nc2ccccc2NS(C)(=O)=O)n1 | T |

Here is the next item to consider.
Lookup: For this compound, state the assay outcome: CC(C)(C)n1nc(-c2ccc(Cl)cc2)c2c(N)ncnc21
Found: T
